Provide the reported Percent Effect of each item.
# assay target: Ubiquitin-activating enzyme e1, putative (Leishmania donovani (strain BPK282A1)) (UniProt E9BSI1)
# Sequence (E9BSI1 as listed by the source): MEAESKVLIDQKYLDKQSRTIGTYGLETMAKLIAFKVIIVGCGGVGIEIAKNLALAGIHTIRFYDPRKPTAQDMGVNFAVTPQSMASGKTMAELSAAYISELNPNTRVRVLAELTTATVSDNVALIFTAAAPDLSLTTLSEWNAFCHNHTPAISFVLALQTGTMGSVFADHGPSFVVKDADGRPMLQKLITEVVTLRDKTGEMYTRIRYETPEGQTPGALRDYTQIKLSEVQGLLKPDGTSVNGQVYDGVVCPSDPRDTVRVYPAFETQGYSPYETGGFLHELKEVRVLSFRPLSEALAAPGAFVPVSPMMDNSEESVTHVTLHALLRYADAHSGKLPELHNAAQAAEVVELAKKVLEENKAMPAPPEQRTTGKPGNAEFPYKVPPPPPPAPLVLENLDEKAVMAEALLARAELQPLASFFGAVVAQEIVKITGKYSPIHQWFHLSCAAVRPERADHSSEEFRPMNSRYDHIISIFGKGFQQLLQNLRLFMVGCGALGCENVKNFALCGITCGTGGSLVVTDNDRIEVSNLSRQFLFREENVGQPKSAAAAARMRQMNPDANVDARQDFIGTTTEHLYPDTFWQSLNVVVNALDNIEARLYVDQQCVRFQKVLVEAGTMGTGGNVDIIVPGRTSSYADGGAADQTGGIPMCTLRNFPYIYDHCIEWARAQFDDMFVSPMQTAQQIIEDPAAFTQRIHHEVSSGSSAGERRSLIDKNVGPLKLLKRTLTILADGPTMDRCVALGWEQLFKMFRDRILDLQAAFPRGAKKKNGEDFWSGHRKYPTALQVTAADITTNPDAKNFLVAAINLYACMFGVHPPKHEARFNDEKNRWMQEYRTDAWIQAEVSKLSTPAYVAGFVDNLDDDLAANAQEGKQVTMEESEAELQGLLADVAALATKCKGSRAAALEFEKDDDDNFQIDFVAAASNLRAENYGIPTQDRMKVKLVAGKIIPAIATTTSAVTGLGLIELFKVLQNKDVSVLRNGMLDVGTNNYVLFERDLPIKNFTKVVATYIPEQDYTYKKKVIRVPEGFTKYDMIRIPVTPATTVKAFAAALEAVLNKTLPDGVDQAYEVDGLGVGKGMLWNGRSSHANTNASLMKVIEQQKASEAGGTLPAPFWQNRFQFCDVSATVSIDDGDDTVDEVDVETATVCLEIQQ
# test: Leishmania donovani Ubiquitin Activating Enzyme (LdE1)
# Type: functional
# Set-up: scale not given: direction of the effect not stated beside the values
# settings: 30 µM
Results with a measured potency or affinity are listed apart.
Hi! Could you send only the number? It should be in %, unit omitted.

What the record says about `Cc1noc(C)c1CN(C)CCC(=O)N1CCc2sccc2C1` : Percent Effect is 0

Entry `COC(=O)CCc1c(C)nc2cc(O)nn2c1C` — recorded Percent Effect = 20.8

Lookup result for `COc1ccc(CC(=O)N2CCCN(c3ccc(C#N)cc3)CC2)cc1` ; measured Percent Effect: -5.26

The recorded Percent Effect for entry CCc1nc(CN2CCCC(NCc3nc4cccnc4[nH]3)C2)no1 (stereo not drawn) equals 20.2

Lab note: `COc1ccc2c(c1)CN(Cc1nc3ccsc3c(=O)[nH]1)CC2` gave Percent Effect of -5.06

Reported Percent Effect ( CC(C)c1nccn1-c1cccc(C2CCCN(C3CCCC3)C2)n1 (stereo not drawn) ) = 6.67

For COCCCN1CCCN(C(C)c2nc(C3CC3)no2)CC1 (stereo not drawn) the compound record lists Percent Effect as 8.11

Percent Effect measured on CCC(CNC(=O)c1ccc(Br)o1)N1CCc2ccccc2C1 (stereo not drawn) = -2.7

Reported Percent Effect ( CCNC(=O)NC(=O)CSC(C)c1ccccc1F (stereo not drawn) ) = 0

compound CCn1ncnc1C(NC(=O)CC1CCN(C(C)C)CC1)C1CC1 (stereo not drawn) , Percent Effect observed: -2.7

For CC(C)NC(=O)C1CN(C(=O)Nc2ccccc2)CC12CCOCC2 (stereo not drawn) the compound record lists Percent Effect as 3.9

get_value(item= CN(CC1CN(Cc2cn3ccsc3n2)CCO1)c1cccnn1 (stereo not drawn) , readout=Percent Effect) returns 26

response.value for CN(C)S(=O)(=O)c1ccc(CN2CCCC2c2ccc[nH]2)o1 (stereo not drawn) (field: Percent Effect) = -13.2

Percent Effect measured on CC(C)(C)c1n[nH]c(C2CN(C(=O)c3csnn3)CCO2)n1 (stereo not drawn) = 18.4

response.value for `Cc1cnc(N2CC3(CCN(C(=O)c4ccoc4)C3)C2)nc1` (field: Percent Effect) = 5.2

Recorded Percent Effect (compound CS(=O)(=O)N1CCC2(CC1)CC(CC(=O)NC1CC1)c1ccccc12 (stereo not drawn) ): 9.09

Percent Effect reading for `CC(=O)Nc1nc(C(=O)Nc2ccc(F)cc2)cs1` : 15.6

Memo: CCc1nc(CC(=O)NCC(Cc2ccc(F)cc2)C(N)=O)cs1 (stereo not drawn) , reported Percent Effect: 5.26

So, `c1ccc(CN2CCc3ncnc(-c4ccsc4)c3CC2)nc1` ? Its Percent Effect was 0

Percent Effect measured on c1ccc(CN2CCOCC3(CCN(C4CCOCC4)C3)C2)cc1 (stereo not drawn) = 6.49

For `O=C(O)[C@]12CCCN(Cc3ccncc3)[C@@H]1CCN(c1cnccn1)C2` the compound record lists Percent Effect as 2.67

According to the records, this compound O=C(NCCn1ccnc1)N1CCCC1c1ccsc1 (stereo not drawn) displays Percent Effect of 10.3

In plain terms, `CCc1cnc(C)nc1NCCN1CCCCCC1` has a documented Percent Effect of 5.2

Percent Effect measured on `CN(C)S(=O)(=O)N1CC[C@]2(C[C@H](Oc3cccnc3)CO2)C1` = 14.3

Just so you know, measured Percent Effect for Cc1cc(CN(C)C(=O)NC2CCCN(c3ncccn3)C2)no1 (stereo not drawn) came out at 5.26

The recorded Percent Effect for `CC(=O)N1CCCN(C(=O)NCc2ccccn2)CC1` is 0

For reference, reported Percent Effect for `COc1cc(C(=O)Nc2c(C)noc2C)ccc1C` stands at 17.7

Record summary for O=C(Cc1csc(-c2nnc[nH]2)n1)N1CCCC1Cn1cccn1 (stereo not drawn) : reported Percent Effect = 8

Measured Percent Effect of CC(C)C(C(=O)N1CCCN(Cc2cnn(C)c2)CC1)n1cncn1 (stereo not drawn) : 0

Recorded Percent Effect (compound CC(NC(=O)CCc1cccs1)c1nnc2n1CCC2 (stereo not drawn) ): 2.7

Percent Effect reading for `CC(C)(C)n1cc(C(=O)N2CCN(Cc3ccsc3)CC2)cn1` : 10.5

# compound `Cc1nnsc1C(=O)N1CCC2(CC1)c1nc[nH]c1CCN2CC(C)C` ; its Percent Effect = 5.33

Looking up Cc1noc(CN2CCOC(CN(C)C)C2)n1 (stereo not drawn) , I found its Percent Effect recorded as 24.3

For CN(Cc1cnn(-c2ccccc2)n1)CC1CCCN1c1cccnn1 (stereo not drawn) the compound record lists Percent Effect as -36.8

Note to self: Percent Effect recorded for CC(NC(=O)c1cc(Br)c2c(c1)OCCO2)C(N)=O (stereo not drawn) was 18.7

`CN1C[C@H]2CCN(C(=O)NC3CCCC3)CC[C@H]2S1(=O)=O` has a reported Percent Effect of -4

For `NC(=O)N1CCC2(CC1)CN(c1ccsc1)C(=O)CO2` the compound record lists Percent Effect as 10.7

Notebook: COCC1CN(Cc2ccsc2)Cc2nn(C)cc21 (stereo not drawn) , Percent Effect read as 6.49
